test system: ATP-binding cassette sub-family B member 6 (Homo sapiens)
procedure details: blockers of ABCB6-driven porphyrin uptake – K562-ABCB6 cells, flow cytometry, validation set, pilot screen (AID 588550);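 further: 0% = DMSO wells and 100% = benzethonium chloride 70 µM positive control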
recorded conditions: K562-ABCB6 porphyrin accumulation, 1 h, at 10 µM, stronger effect = higher value
readout type: inhibition (%)
Could you give me the number in %? Just the number is fine.

Check out these entries, answers already filled in.
compound	inhibition, %
NC(N)=NC(=O)Cc1c(Cl)cccc1Cl	18
CC(C)CC1c2[nH]c3ccccc3c2CCN1C(=O)CCC(=O)N(C)C (centres undefined)	12
Cc1ccc(CSCC(=O)N2CCCC2)cc1	0
O=C(O)CCSCCC(=O)O	7
COc1ccc(C2C3CCCCC3(O)CCN2C(=O)c2cccs2)cc1 (centres undefined)	-4
COc1cc(-c2nnc(-c3cccs3)o2)cc(OC)c1OC	29

Ask | Requested read-out: inhibition. Entry: COc1ccc(NC(=O)C2OC3OC(C)(C)OC3C3OC(C)(C)OC23)cc1 (centres undefined)
Reply | 5

Ask | Requested read-out: inhibition. Entry: `CO[C@H]1C=CO[C@@]2(C)Oc3c(C)c(O)c4c(O)c(c(C=NN5CCN(C)CC5)c(O)c4c3C2=O)NC(=O)C(C)=CC=C[C@H](C)[C@H](O)[C@@H](C)[C@@H](O)[C@@H](C)[C@H](OC(C)=O)[C@@H]1C`
Reply | 12

Ask | Requested read-out: inhibition. Entry: `COc1cccc(OCc2nnc(-c3cccs3)o2)c1`
Reply | -5

====

System: anti-desmoglein-3 scFv antibody binding to human DSG3
procedure details: blockers of pathogenic pemphigus antibody–desmoglein-3 binding – biochemical, validation compound set, bead-based, flow cytometry, pilot screen (AID 588368);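 further: signal is the median channel fluorescence of bead-bound GFP antibody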
recorded conditions: Protein G beads, DSG3-Fc, scFv-GFP binding, at 10 µM, stronger effect = lower value
readout type: binding (% of control) (%)
Could you give me the number in %? Just the number is fine.

compound	readout type	readout number
O=C(OCC1CCCN2CCCCC12)c1ccc2c(c1)OCO2 (stereo not drawn)	binding (% of control)	104
CCOC(=O)c1c(C)oc2c1C(=O)c1ccccc1C2=O	binding (% of control)	96.7
CCNC(=O)c1c(N)sc2c1CCCCC2	binding (% of control)	95.3
O=C(O)CCCCCN1C(=O)C(=O)/C(=C(/O)c2ccccc2)C1c1ccccc1 (stereo not drawn)	binding (% of control)	98
CCN(CC)CCNC(=O)c1ccc(N)cc1	binding (% of control)	94.2
COc1ccc(CNCCC(c2ccc(F)cc2)c2ccc(OC(C)C)cc2)cc1OC (stereo not drawn)	binding (% of control)	113
c1ccc(-c2ccccn2)nc1	binding (% of control)	101

Let us examine a further case.
Ask | Requested read-out: binding (% of control). Entry: `CNC(=O)Oc1ccc2c(c1)[C@]1(C)CCN(C)[C@@H]1N2C`
Reply | 104

====

The following molecules are shown together with reported inhibition values.
test system: Integrin beta-1 (Homo sapiens) + Integrin alpha-4 (Homo sapiens) (UniProt P13612+P05556)
Sequence (P05556 whole entry, looked up): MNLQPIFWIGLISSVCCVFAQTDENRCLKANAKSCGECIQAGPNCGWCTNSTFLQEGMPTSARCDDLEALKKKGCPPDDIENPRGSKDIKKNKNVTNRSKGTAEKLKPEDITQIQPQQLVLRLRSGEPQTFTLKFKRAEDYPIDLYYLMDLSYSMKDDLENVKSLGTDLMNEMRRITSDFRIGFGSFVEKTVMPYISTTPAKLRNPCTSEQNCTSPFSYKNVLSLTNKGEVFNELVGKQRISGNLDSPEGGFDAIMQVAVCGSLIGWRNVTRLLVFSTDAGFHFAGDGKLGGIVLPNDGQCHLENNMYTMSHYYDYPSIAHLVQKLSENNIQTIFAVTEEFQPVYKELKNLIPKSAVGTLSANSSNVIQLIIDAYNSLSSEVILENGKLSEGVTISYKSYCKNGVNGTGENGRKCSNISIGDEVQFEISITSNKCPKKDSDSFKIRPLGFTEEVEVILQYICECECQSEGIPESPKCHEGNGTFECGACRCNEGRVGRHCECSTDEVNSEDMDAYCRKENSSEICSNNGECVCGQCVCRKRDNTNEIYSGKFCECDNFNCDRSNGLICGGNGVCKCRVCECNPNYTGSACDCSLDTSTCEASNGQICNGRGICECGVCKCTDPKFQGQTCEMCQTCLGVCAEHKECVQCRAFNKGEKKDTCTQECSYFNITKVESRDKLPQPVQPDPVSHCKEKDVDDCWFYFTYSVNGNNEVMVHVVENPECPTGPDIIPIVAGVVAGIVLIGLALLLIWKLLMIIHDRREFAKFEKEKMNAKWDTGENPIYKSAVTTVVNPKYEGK
Sequence (P13612 whole entry, looked up): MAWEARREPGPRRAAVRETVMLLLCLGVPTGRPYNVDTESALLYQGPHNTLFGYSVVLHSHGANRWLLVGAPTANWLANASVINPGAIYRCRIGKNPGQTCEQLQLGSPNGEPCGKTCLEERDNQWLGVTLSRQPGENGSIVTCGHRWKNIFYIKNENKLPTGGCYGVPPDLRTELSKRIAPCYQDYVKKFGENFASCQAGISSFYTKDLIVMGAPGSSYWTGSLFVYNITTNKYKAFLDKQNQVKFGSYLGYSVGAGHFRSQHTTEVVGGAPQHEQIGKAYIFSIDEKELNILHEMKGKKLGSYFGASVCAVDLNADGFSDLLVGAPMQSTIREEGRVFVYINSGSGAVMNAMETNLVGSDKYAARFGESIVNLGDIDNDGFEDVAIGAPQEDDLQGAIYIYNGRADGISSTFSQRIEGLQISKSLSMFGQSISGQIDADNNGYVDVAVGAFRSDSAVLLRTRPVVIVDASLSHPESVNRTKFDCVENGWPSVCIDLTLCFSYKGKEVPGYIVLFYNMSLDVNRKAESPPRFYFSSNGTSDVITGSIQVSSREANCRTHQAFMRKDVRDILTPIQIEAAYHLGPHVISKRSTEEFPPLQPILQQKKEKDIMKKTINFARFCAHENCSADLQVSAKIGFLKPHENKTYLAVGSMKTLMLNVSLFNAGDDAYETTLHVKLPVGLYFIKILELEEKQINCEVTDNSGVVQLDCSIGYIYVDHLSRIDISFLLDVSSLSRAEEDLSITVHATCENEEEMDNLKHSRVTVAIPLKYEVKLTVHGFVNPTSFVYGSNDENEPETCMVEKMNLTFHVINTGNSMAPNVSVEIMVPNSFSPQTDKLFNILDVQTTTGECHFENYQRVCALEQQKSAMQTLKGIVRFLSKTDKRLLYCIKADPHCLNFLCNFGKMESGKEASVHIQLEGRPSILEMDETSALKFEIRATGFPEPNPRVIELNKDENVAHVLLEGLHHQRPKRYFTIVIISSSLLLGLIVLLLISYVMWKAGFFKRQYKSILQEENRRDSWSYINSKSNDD
procedure details: alpha4beta1 integrin LIBS antibody binding reduction – U937 cells, HUTS-21 mAb, flow cytometry, validation set, VLA-4 allosteric modulator project, pilot screen (AID 2674);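 further: antibody binding induced by the VLA-4 ligand LDV present at three times its Kd; 0% = LDV ligand with antibody and no compound and 100% = antibody without LDV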
recorded conditions: HUTS-21 LIBS mAb binding, at 6.7 µM, stronger effect = higher value, binding induced by LDV ligand
Activity calls are given as the source filed them.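 Rule for the calls: active = inhibition above 50%, about 3 SD of the validation set; inactive = the rest.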

Check out these entries, answers already filled in.
molecule	inhibition
COC(=O)[C@@H](N)CS	-3.18% (inactive)
CSCC[C@H](NC(=O)Nc1ccc(C)cc1C)C(=O)O	3.67% (inactive)
N/C(Cc1ccc(Cl)cc1Cl)=N\OC(=O)c1ccc(Br)o1	-11.3% (inactive)
CC(C)(C)NCC(O)COc1cccc2c1C[C@H](O)[C@H](O)C2 (some centres undefined)	-16% (inactive)
OCCN(Cc1nc(-c2ccc3c(c2)OCO3)no1)Cc1cccs1	9.63% (inactive)

Ask | Requested read-out: inhibition. Entry: `Cc1cc(O)c(C(C)C)cc1C1(c2cc(C(C)C)c(O)cc2C)OC(=O)c2ccccc21`
Reply | 43.2% (inactive)

Ask | Requested read-out: inhibition. Entry: CN(C)c1ccc(CNCCC(Cc2ccccc2)c2ccco2)cc1 (centres undefined)
Reply | 1.12% (inactive)

====

procedure details: yeast TOR pathway reporter LAP4-GFP change – cell-based, cherry picks, flow cytometry, mother/daughter gates, confirmation (AID 2271);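 further: ratio of sample to DMSO plate mean so 100% equals DMSO level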
recorded conditions: S. cerevisiae LAP4-GFP strain, 3 h, at 10 µM, 100 means same as DMSO control
Calls of active or inactive are those of the source.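 How the source made its calls: active means GFP response above 150% of the DMSO control; inconclusive means fewer than 70 events counted in any yeast strain; inactive means the rest.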
API: response.call in t (active), f (inactive)

# example entries with known answers
compound smiles	qualitative label
COc1cccc(/C=C/C(=O)c2c(O)cc(C)oc2=O)c1O	t
CC(=O)[C@H]1CC[C@H]2[C@@H]3CCC4=CC(=O)CC[C@]4(C)[C@H]3CC[C@]12C	f
O=C(/C=C/c1ccc(Cl)c([N+](=O)[O-])c1)c1cccnc1	t

Continue with the next compound.
Ask | Short answer needed: outcome of this test for `CC(=O)c1ccc(CCCCCCCCCC(=O)O)s1` ?
Reply | f

====

test system: Beta-adrenergic receptor kinase 1 (Homo sapiens)
procedure details: GRK2 binders displacing RNA aptamer, biochemical, validation, human GRK2, bead flow cytometry (AID 488806)
recorded conditions: bead-bound GRK2, FAM-aptamer displacement, at 10 µM, stronger effect = higher value
The following compounds are shown together with reported aptamer binding inhibition values.
Could you give me the number in %? Just the number is fine.

compound smiles	aptamer binding inhibition [%]
Cc1ccccc1C(=O)Nc1ccccc1C(=O)NCC(C)C	3

Ask | Requested read-out: aptamer binding inhibition. Entry: `Nc1ccc(S(=O)(=O)NC(=O)c2ccccc2)cc1`
Reply | 1

Ask | Requested read-out: aptamer binding inhibition. Entry: `CC(C)NS(=O)(=O)c1ccc(OCC(=O)Nc2cccc(F)c2)cc1`
Reply | 3

====

procedure details: yeast AGP1-GFP level changes, GLN3 branch – cell-based, multiplex flow cytometry, S. cerevisiae, primary screen (AID 1887);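 further: AGP1-GFP fusion strain of S. cerevisiae within a five-strain barcoded multiplex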
recorded conditions: 3 h, at 10 µM, stronger effect = higher value
Results filed as inconclusive are left out.
readout type: GFP response, % of DMSO (%)
Could you give me the number in %? Just the number is fine.

Check out these entries, answers already filled in.
molecule	readout type	readout number
COC(=O)c1ccc(NC(=O)C23CCC(C)(C(=O)O2)C3(C)C)cc1 (stereo not drawn)	GFP response, % of DMSO	106
COc1cc(NC(=O)COc2ccccc2)c(OC)cc1NC(C)=O	GFP response, % of DMSO	101
O=C(O)C1CSC(c2ccco2)N1 (stereo not drawn)	GFP response, % of DMSO	124

Ask | Requested read-out: GFP response, % of DMSO. Entry: `Cc1coc2c1c(C)cc1oc(=O)c(Cc3ccccc3)c(C)c12`
Reply | 101

Ask | Requested read-out: GFP response, % of DMSO. Entry: `Cc1ccc(-c2nnc(-c3ccc4c(c3)OCO4)o2)cc1`
Reply | 115

Ask | Requested read-out: GFP response, % of DMSO. Entry: `O=c1c2[nH]c3ccccc3c2ncn1CCC1=CCCCC1`
Reply | 89.6

Ask | Requested read-out: GFP response, % of DMSO. Entry: `COc1cc(CNc2nnnn2C)ccc1OCc1ccc(F)cc1Cl`
Reply | 97.2

Ask | Requested read-out: GFP response, % of DMSO. Entry: `O=C(/C=C/c1ccccc1)NCC1(c2ccccc2)CCOCC1`
Reply | 103

====

The following molecules are shown together with reported double positive events values.
procedure details: reduced mouse 2C T cell binding to pMHC/ICAM-1 vesicles – MLPCN validation set, flow cytometry, LFA-1/ICAM-1 modulator project, pilot screen (AID 2523)
recorded conditions: 2C mouse CD8+ T cells, at 7 µM, stronger effect = lower value; measured here: CD8+/vesicle+ event percentage
Could you give me the number in %? Just the number is fine.

Check out these entries, answers already filled in.
molecule	double positive events [%]
CN(C)CCOC(c1ccccc1)c1ccccc1 (tested in a mixture with another compound)	58.3
COc1ccc2[nH]c(=O)c3c(c2c1)OC(C)(C)C=C3	59.1
C[C@]12CC[C@@H]3c4ccc(O)cc4CC[C@H]3[C@@H]1C[C@@H](O)[C@@H]2O[C@@H]1O[C@H](C(=O)O)[C@@H](O)[C@H](O)[C@H]1O	61.7
CC(C)COCC1CC2(CC(C)(c3csc(N)n3)OC2=O)C(=O)O1 (configuration not stated)	60.8
O=C(O)CCCNc1ccc(S(=O)(=O)Nc2ccccc2C(=O)O)cc1C(=O)O	64.9
COc1ccc(C2C3=C(CC(C)(C)CC3=O)N(C)C3=C2C(=O)CC(C)(C)C3)cc1	62.6

Ask | Requested read-out: double positive events. Entry: CC(C)C(CCN1C(=O)CCC1=O)C1CCOC(C)(C)C1 (configuration not stated)
Reply | 62.8

====

procedure details: reduced mouse 2C T cell binding to pMHC/ICAM-1 vesicles – MLPCN validation set, flow cytometry, LFA-1/ICAM-1 modulator project, pilot screen (AID 2523)
recorded conditions: 2C mouse CD8+ T cells, at 7 µM, stronger effect = lower value; measured here: CD8+/vesicle+ event percentage
readout type: double positive events (%)
Could you give me the number in %? Just the number is fine.

Check out these entries, answers already filled in.
compound	double positive events / %
COc1ccc(OCc2cccc(C(=O)NN)c2)cc1	59.7
COc1ccc(C2C(C#N)=C(N)Oc3cc(C)[nH]c(=O)c32)c(OC)c1OC (stereo unspecified)	63.8
CCOCC(=O)Nc1nc2ccccc2s1	65.7
CC12COC3(C(=O)Nc4ccc(F)cc4)CC1CCC32C (stereo unspecified)	65.7
COc1cc(C2NCCc3c2[nH]c2ccccc32)ccc1OC(C)C (stereo unspecified)	58.1

Ask | Requested read-out: double positive events. Entry: `O=C(O)c1cc2cc(Cl)cc(Cl)c2oc1=O`
Reply | 41.9

Sourced from PubChem BioAssay
